All values here come from PubChem BioAssay.

# Assay target: Receptor tyrosine-protein kinase erbB-2 (Homo sapiens) (UniProt P04626)
# Sequence (P04626 whole entry, looked up): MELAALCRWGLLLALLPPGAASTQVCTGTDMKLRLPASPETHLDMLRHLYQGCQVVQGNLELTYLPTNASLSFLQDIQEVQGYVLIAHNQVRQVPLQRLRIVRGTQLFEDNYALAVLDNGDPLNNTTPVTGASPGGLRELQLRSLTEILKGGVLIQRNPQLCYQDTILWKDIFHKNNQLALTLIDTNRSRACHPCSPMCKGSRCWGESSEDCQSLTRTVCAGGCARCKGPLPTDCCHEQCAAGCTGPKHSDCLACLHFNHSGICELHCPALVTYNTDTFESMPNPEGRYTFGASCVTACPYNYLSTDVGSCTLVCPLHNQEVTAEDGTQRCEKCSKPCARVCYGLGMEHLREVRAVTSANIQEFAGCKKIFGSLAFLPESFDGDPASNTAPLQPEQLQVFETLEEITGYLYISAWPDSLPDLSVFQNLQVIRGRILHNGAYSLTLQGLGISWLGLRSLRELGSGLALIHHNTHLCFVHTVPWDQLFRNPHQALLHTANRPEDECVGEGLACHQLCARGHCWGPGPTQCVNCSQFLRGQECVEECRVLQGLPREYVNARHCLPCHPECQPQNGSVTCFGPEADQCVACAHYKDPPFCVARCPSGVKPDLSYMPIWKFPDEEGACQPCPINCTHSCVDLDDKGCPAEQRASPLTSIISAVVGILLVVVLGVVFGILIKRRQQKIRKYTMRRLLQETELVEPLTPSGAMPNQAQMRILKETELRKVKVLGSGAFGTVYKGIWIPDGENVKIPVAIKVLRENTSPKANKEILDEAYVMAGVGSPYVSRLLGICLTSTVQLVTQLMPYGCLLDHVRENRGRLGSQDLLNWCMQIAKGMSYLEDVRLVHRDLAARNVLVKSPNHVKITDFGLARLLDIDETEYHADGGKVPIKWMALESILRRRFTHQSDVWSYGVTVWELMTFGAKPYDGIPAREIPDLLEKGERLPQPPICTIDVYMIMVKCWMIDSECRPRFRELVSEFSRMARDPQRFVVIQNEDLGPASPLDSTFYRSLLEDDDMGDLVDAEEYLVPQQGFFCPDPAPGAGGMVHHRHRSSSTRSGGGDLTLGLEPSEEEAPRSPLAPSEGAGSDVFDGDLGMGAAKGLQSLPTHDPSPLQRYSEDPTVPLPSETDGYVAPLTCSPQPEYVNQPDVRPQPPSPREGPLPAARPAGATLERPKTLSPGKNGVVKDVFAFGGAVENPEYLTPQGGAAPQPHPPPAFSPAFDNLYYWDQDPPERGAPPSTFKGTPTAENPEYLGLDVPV
# Assay comment: Her2 expression decrease, cell viability multiplex – SKBR3 breast tumor cells, AlphaScreen, ATP viability, primary screen (AID 461)
# Condition set: 18-24 h, at 10 µM, stronger effect = lower value
The source made the active and inactive calls.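 How the source made its calls: active means Her2 level under about 52% in both replicate screens, with viability over 70% of control (limit read from the data); inconclusive means Her2 under the limit in one screen only, or viability under 70%; inactive means Her2 level above the set limit.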
Listing: Her2 level of selected compounds
Assay metric: Her2 level

• CC(C)(O)C#Cc1ccc(C(=O)N2CCN(C(=O)c3ccco3)CC2)cc1 = 88% (inactive)
• CCOc1ccc(OCCCCN(C)C)cc1 = 92.5% (inactive)
• COc1ccc(NC(=O)CSc2nnc(-c3ccccc3)n2N)cc1 = 87.5% (inactive)
• CCN(CC)CCCNC(=O)c1cn(C)c2ccc(S(=O)(=O)N(C)C)cc2c1=O = 116% (inactive)
• CCOc1cc(C2C3=C(CCCC3=O)N(C)C3=C2C(=O)CCC3)cc(Cl)c1O = 74.5% (inactive)
• CC(C)NC(=O)c1ccc2c(c1)nnn2C = 84% (inactive)
• Cc1cccc(NC(=O)CS(=O)(=O)c2cn(C)c3ccccc23)c1 = 95.5% (inactive)
• Fc1ccc(-c2ccc(-c3nn4c(-c5ccco5)nnc4s3)o2)cc1 = 63% (inactive)
• C=CCSc1nc(N)c2c(C)c(C)sc2n1 = 70.5% (inactive)
• COc1ccc(C2C(C(C)=O)=C(C)N=c3s/c(=C/c4ccc5c(c4)OCO5)c(=O)n32)cc1 (stereo unspecified) = 97.5% (inactive)
• CC1=C(C(=O)OC2CCCC2)C(c2ccc(C)o2)C2=C(CC(c3cccs3)CC2=O)N1 (stereo unspecified) = 108% (inactive)
